Observed IC50 values for MMP-8 catalytic domain (Homo sapiens, UniProt P22894) are listed in what follows.

COMPOUND: Cc1cc(C(F)(F)CCc2ccc(C(=O)O)cc2)cc(C(=O)NCc2cccc(C(F)(F)F)c2)n1.O=C(O)C(F)(F)F [Example 2, monotrifluoroacetic acid salt]
IC50: > 30 µM

Turning now to a further record.
Look at this compound and give its reported IC50. Cc1cc(C(O)CCc2ccc(C(=O)O)cc2)cc(C(=O)NCc2cccc(C(F)(F)F)c2)n1 (centres unmarked) [Example 3] > 100 µM

----------
Observed IC50 values for MMP-3 catalytic domain (Homo sapiens, UniProt P08254) are listed in what follows.
ENDPOINT_NAME: IC50 (µM)

MOLECULE: Cc1cc(C(F)CCc2ccc(C(=O)O)cc2)cc(C(=O)NCc2cccc(C(F)(F)F)c2)n1 (stereo not drawn) [Example 1]
TARGET_SYSTEM: MMP-3 catalytic domain (Homo sapiens, UniProt P08254)
Sequence (P08254 100-272 limits assumed, species assumed): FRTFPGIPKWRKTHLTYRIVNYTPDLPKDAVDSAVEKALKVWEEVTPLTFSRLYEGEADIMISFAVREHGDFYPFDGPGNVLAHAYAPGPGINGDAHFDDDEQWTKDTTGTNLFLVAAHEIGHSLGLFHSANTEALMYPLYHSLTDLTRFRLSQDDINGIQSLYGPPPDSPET
ENDPOINT_NAME: IC50
MEASURED: 11

a: Cc1cc(C(O)CCc2ccc(C(=O)O)cc2)cc(C(=O)NCc2cccc(C(F)(F)F)c2)n1 (stereo not drawn) [Example 3]
b: Cc1cc(C(F)(F)CCc2ccc(C(=O)O)cc2)cc(C(=O)NCc2cccc(C(F)(F)F)c2)n1.O=C(O)C(F)(F)F [Example 2, monotrifluoroacetic acid salt]
Select one. Lower IC50: a or b To answer, give the label that identifies your chosen option. a

----------
Target protein (sequence): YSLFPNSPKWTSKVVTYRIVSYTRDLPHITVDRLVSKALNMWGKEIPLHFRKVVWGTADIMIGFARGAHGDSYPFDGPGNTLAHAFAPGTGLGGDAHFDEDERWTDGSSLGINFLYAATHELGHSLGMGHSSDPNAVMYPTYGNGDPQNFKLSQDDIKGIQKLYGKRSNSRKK
ENDPOINT_NAME: IC50 (nM)
The answer is to be given in nM; state only the numeric part.

Look at this compound and give its reported IC50. Cc1cc(C(F)(F)CCc2ccc(C(=O)O)cc2)cc(C(=O)NCc2cccc(C(F)(F)F)c2)n1.O=C(O)C(F)(F)F [Example 2, monotrifluoroacetic acid salt] 1700

----------
Observed IC50 values for MMP-1 full-length (Homo sapiens) are listed in what follows.

MOLECULE: Cc1cc(C(F)(F)CCc2ccc(C(=O)O)cc2)cc(C(=O)NCc2cccc(C(F)(F)F)c2)n1.O=C(O)C(F)(F)F [Example 2, monotrifluoroacetic acid salt]
TARGET_SYSTEM: MMP-1 full-length (Homo sapiens)
Sequence (P03956 100-469, species assumed): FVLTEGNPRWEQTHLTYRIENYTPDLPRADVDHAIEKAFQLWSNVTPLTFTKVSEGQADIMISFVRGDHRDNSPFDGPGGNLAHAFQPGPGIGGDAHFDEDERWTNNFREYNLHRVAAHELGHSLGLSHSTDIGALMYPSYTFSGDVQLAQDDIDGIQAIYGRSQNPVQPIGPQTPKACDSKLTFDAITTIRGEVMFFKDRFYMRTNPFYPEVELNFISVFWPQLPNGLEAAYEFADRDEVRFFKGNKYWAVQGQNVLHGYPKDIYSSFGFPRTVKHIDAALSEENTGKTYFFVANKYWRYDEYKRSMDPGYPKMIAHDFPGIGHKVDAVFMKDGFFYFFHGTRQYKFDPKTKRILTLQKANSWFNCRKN
IC50: > 100 µM

Look at this molecule and give its reported IC50. Cc1cc(C(O)CCc2ccc(C(=O)O)cc2)cc(C(=O)NCc2cccc(C(F)(F)F)c2)n1 (stereo not drawn) > 100 µM

Try this molecule next: Cc1cc(C(F)CCc2ccc(C(=O)O)cc2)cc(C(=O)NCc2cccc(C(F)(F)F)c2)n1 (stereo not drawn) > 100 µM

----------
- TARGET_SYSTEM: MMP-9 full-length (Homo sapiens, UniProt P14780)
- Sequence (P14780 94-707, species assumed): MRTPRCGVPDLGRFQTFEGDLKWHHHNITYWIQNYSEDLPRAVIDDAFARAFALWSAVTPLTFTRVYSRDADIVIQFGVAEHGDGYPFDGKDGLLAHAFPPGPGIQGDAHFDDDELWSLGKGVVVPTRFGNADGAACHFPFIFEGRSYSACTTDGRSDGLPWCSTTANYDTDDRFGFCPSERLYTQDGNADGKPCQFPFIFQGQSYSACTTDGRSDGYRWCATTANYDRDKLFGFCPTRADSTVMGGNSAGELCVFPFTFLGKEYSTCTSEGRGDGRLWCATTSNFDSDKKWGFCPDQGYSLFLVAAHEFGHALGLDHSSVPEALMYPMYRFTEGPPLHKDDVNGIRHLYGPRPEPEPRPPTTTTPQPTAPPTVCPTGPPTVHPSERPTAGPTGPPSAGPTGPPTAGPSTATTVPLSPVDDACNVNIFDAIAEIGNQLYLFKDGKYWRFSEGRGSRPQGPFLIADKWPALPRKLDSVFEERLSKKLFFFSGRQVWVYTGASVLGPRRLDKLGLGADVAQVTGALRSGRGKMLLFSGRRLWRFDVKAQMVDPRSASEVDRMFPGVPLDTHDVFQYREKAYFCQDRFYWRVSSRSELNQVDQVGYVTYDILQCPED
ENDPOINT_NAME: IC50 (µM)
The answer is to be given in µM; state only the numeric part.

Look at this compound and give its reported IC50. Cc1cc(C(F)(F)CCc2ccc(C(=O)O)cc2)cc(C(=O)NCc2cccc(C(F)(F)F)c2)n1.O=C(O)C(F)(F)F [Example 2, monotrifluoroacetic acid salt] 64
